system: Ba/F3-NRAS-G12V cells; assay: Anti-proliferation assay (CellTiter Glo) on Ba/F3-NRAS-G12V; assay type: cell-based; details: Mus musculus, BaF3; 72 h treatment; average with SD (n = 3, duplicate)
Reported endpoint: GI50 (nM)

// solved cases for GI50 follow
INSERT INTO assay_data (compound_structure_string, quantitative_result) VALUES
  ('CCN1CCC(n2cc(Nc3ncc4c(n3)N(C)C(=O)N(c3cc(NC(=O)c5cccc(C(F)(F)F)c5)ccc3C)C4)cn2)CC1', 130),
  ('Cc1ccc(NC(=O)c2cccc(C(F)(F)F)c2)cc1N1Cc2cnc(Nc3ccc(N4CCC(O)CC4)cc3)nc2N(C)C1=O', 181),
  ('CCN1CCN(c2ccc(Nc3ncc4c(n3)N(C)C(=O)N(c3cc(NC(=O)c5cccc(C(F)(F)F)c5)ccc3C)C4)c(C(F)(F)F)c2)CC1', 944),
  ('Cc1ccc(NC(=O)c2cccc(C(F)(F)F)c2)cc1N1Cc2cnc(NCCCN3CCOCC3)nc2N(C)C1=O', 351),
  ('Cc1ccc(Nc2ncc3c(n2)N(C)C(=O)N(c2cc(NC(=O)c4cccc(C(F)(F)F)c4)ccc2C)C3)c(C)n1', 428);

A: Cc1ccc(NC(=O)c2cccc(C(F)(F)F)c2)cc1N1Cc2cnc(Nc3cnn(C)c3)nc2N(C)C1=O
B: CCN1CCN(c2cccc(Nc3ncc4c(n3)N(C)C(=O)N(c3cc(NC(=O)c5cccc(C(F)(F)F)c5)ccc3C)C4)c2)CC1
Among A and B , which shows a numerically higher GI50 result? Indicate which entry you chose by stating its label. A

----------
Tested on: MDA-MB-468 (KRAS, NRAS-wt)
Assay: Anti-proliferation assay on MDA-MB-468
Assay type: cell-based
Details: Homo sapiens, MDA-MB-468; 72 h treatment; average with SD (n = 3, duplicate)
Method: Ba/F3-parental, OCI-AML3, U397 cells were purchased from DSMZ. MDA-MB-231, HCT-116, AsPC-1, H358, HT-29, SW480, and DU-145 cells were obtained from KCLB. MDA-MB-468 cells were obtained from ATCC. All cells were maintained in RPMI with 10% FBS and antibiotics. Cells were grown in a humidified 5% CO2 incubator at 37°C. Ba/F3-parental cells were grown in the presence of 10 ng/ml IL-3. […]
Reported endpoint: GI50

// solved cases for GI50 follow
INSERT INTO results (compound_structure_string, result) VALUES
  ('CCN1CCN(c2ccc(Nc3ncc4c(n3)N(C)C(=O)N(c3cc(NC(=O)c5cccc(C(F)(F)F)c5)ccc3C)C4)cc2)CC1', '26.1 µM'),
  ('Cc1ccc(Nc2ncc3c(n2)N(C)C(=O)N(c2cc(NC(=O)c4cccc(C(F)(F)F)c4)ccc2C)C3)c(C)n1', '> 50 µM'),
  ('COc1cc(N2CCOCC2)ccc1Nc1ncc2c(n1)N(C)C(=O)N(c1cc(NC(=O)c3cccc(C(F)(F)F)c3)ccc1C)C2', '> 50 µM'),
  ('Cc1ccc(NC(=O)c2cccc(C(F)(F)F)c2)cc1N1Cc2cnc(Nc3cnn(C4CCN(S(C)(=O)=O)CC4)c3)nc2N(C)C1=O', '44.9 µM'),
  ('CCN1CCN(c2cccc(Nc3ncc4c(n3)N(C)C(=O)N(c3cc(NC(=O)c5cccc(C(F)(F)F)c5)ccc3C)C4)c2)CC1', '15.7 µM');

Consider the molecule shown here: Cc1ccc(NC(=O)c2cccc(C(F)(F)F)c2)cc1N1Cc2cnc(Nc3ccc(N4CCOCC4)cc3)nc2N(C)C1=O What is its recorded GI50? > 50 µM

Check Cc1ccc(NC(=O)c2cccc(C(F)(F)F)c2)cc1N1Cc2cnc(Nc3ccc(N4CCC(O)CC4)cc3)nc2N(C)C1=O too. 20.2 µM

Check Cc1ccc(NC(=O)c2cccc(C(F)(F)F)c2)cc1N1Cc2cnc(Nc3ccn(C)n3)nc2N(C)C1=O too. > 50 µM
